Value source: patent US8765748B2

The following compounds are listed with their measured inhibition at 10 µM values.
- SYSTEM TESTED: JNK 2 (Homo sapiens, UniProt P45984)
- Sequence (P45984 whole entry): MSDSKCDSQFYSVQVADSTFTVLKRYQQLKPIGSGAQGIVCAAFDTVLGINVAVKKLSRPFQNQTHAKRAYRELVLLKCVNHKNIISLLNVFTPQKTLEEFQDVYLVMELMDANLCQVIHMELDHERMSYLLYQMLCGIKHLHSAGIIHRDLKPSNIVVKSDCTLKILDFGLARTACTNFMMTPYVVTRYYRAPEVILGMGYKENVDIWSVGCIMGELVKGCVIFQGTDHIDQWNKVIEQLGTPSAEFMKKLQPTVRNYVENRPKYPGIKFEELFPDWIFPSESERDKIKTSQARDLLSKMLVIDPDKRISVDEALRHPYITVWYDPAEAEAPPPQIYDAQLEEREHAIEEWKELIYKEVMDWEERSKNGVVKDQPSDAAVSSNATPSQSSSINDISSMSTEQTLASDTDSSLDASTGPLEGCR
- ASSAY METHOD TEXT: Kinase Selectivity Assay (CEREP, HTRF)
- Format: biochemical
- STUDY CONDITIONS: read-out: % Inhibition at 10 μM Concentration, JNK 2
Numeric answer only, unit % assumed.

Consider the following illustrative entries.
- COMPOUND: "O=C1Nc2ccccc2C1=Cc1ccc2c(/C=C/c3ccccn3)n[nH]c2c1 (mixture of isomers)"
  SYSTEM TESTED: "JNK 2 (Homo sapiens, UniProt P45984)"
  READOUT UNIT: "%"
  REPORTED RESULT: 52
- COMPOUND: "O=C1Nc2ccccc2/C1=C\\c1ccc2c(/C=C/c3ccccc3Cl)n[nH]c2c1"
  SYSTEM TESTED: "JNK 2 (Homo sapiens, UniProt P45984)"
  READOUT UNIT: "%"
  REPORTED RESULT: 3
- COMPOUND: "O=C1Nc2ccccc2/C1=C\\c1ccc2[nH]nnc2c1"
  SYSTEM TESTED: "JNK 2 (Homo sapiens, UniProt P45984)"
  READOUT UNIT: "%"
  REPORTED RESULT: 13
- COMPOUND: "COc1ccc2c(c1)C(=Cc1ccc3c(-c4ccc(N5CCN(C)CC5)nc4)n[nH]c3c1)C(=O)N2 (mixture of isomers)"
  SYSTEM TESTED: "JNK 2 (Homo sapiens, UniProt P45984)"
  READOUT UNIT: "%"
  REPORTED RESULT: 14

Then there is this compound:
Problem: Dear colleague, I am looking for the recorded inhibition at 10 µM of the following compound: `O=C1Nc2ccccc2/C1=C\c1ccc2cn[nH]c2c1`
Solution: 14

* * *

The following compounds are listed with their measured inhibition at 10 µM values.
- SYSTEM TESTED: UniProt P09619
- Sequence (P09619 33-1106): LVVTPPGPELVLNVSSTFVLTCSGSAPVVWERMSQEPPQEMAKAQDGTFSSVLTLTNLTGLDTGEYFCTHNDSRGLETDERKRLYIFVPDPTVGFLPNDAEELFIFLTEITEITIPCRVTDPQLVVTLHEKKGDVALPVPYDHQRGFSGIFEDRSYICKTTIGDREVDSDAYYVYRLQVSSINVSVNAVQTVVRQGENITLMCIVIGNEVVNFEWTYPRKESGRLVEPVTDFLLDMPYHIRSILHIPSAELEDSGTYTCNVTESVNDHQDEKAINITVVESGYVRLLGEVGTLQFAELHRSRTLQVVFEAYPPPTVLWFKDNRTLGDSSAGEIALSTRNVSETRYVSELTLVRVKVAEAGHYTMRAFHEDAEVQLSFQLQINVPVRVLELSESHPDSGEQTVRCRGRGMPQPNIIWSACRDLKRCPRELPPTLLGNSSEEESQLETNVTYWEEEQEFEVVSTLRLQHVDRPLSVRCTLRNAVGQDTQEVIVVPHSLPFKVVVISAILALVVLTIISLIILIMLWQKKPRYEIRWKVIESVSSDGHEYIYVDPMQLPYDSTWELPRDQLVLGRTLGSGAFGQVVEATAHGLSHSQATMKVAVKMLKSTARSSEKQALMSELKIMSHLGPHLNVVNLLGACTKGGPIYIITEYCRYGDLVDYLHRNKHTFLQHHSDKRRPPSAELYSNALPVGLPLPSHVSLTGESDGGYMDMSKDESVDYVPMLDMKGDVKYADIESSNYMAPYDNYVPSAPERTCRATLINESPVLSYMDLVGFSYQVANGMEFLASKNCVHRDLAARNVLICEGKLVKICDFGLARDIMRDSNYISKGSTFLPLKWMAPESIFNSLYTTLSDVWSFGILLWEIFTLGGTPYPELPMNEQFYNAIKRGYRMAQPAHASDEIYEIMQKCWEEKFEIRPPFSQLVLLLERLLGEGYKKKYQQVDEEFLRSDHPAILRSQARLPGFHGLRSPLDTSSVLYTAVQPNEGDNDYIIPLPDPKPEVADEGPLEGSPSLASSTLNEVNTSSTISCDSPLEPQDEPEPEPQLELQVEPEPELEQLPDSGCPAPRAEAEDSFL
- ASSAY METHOD TEXT: Kinase Selectivity Assay (CEREP, HTRF)
- Format: biochemical
- STUDY CONDITIONS: read-out: % Inhibition at 10 μM Concentration, PDGFRbeta
Numeric answer only, unit % assumed.

- COMPOUND: "O=C1Nc2ccccc2/C1=C\\c1ccc2c(/C=C/c3ccccc3Cl)n[nH]c2c1"
  inhibition at 10 µM [%]: 2
- COMPOUND: "O=C1Nc2ccccc2C1=Cc1ccc2c(/C=C/c3ccccn3)n[nH]c2c1 (mixture of isomers)"
  inhibition at 10 µM [%]: 100

Problem: Dear colleague, I am looking for the recorded inhibition at 10 µM of the following compound: `O=C1Nc2ccccc2/C1=C\c1ccc2cn[nH]c2c1`
Solution: 19

Problem: Dear colleague, I am looking for the recorded inhibition at 10 µM of the following compound: `O=C1Nc2ccccc2/C1=C\c1ccc2[nH]nnc2c1`
Solution: 46

Problem: Dear colleague, I am looking for the recorded inhibition at 10 µM of the following compound: COc1ccc2c(c1)C(=Cc1ccc3c(-c4ccc(N5CCN(C)CC5)nc4)n[nH]c3c1)C(=O)N2 (mixture of isomers)
Solution: 0

* * *

- SYSTEM TESTED: KDR kinase (VEGFR2) (Homo sapiens, UniProt P35968)
- Sequence (P35968 20-1356): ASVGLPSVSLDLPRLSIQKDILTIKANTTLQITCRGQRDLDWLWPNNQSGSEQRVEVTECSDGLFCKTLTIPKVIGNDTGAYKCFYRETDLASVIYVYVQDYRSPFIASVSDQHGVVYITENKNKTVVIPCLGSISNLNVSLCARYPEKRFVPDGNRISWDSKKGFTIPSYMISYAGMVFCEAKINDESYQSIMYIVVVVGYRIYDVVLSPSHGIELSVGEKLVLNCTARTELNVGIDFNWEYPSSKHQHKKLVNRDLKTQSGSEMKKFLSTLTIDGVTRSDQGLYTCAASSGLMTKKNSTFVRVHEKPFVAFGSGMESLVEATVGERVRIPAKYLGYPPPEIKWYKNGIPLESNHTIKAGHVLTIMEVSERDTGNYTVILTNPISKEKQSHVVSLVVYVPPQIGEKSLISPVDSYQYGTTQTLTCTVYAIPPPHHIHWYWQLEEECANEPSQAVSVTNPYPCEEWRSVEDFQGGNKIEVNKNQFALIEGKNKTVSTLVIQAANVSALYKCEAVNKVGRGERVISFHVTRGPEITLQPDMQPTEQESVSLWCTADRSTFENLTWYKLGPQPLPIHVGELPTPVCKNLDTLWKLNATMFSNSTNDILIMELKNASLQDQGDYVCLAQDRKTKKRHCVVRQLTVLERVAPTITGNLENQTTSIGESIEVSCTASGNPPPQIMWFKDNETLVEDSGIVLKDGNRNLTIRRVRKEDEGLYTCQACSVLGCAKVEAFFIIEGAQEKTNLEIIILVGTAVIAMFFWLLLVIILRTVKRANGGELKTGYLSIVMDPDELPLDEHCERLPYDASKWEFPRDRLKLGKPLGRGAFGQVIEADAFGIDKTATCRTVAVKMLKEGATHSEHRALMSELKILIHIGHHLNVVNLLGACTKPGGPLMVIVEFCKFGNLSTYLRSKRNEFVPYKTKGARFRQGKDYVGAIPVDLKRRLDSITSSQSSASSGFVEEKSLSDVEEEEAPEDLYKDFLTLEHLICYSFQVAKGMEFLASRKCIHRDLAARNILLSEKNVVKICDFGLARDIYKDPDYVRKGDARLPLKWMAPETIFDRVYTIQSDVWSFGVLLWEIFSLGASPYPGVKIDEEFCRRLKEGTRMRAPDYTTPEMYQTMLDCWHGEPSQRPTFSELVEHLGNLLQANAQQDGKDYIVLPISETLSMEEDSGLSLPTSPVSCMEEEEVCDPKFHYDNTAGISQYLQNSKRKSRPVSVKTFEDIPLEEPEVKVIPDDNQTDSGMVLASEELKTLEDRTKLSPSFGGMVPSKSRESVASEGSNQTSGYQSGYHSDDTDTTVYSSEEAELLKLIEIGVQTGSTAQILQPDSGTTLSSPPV
- ASSAY METHOD TEXT: Kinase Selectivity Assay (CEREP, HTRF)
- Assay type: biochemical
- STUDY CONDITIONS: read-out: % Inhibition at 10 μM Concentration, KDR (VEGFR2)
ASSAY READOUT: inhibition at 10 µM (%)
Numeric answer only, unit % assumed.

Consider the following illustrative entries.
- MOLECULE: "O=C1Nc2ccccc2/C1=C\\c1ccc2c(/C=C/c3ccccc3Cl)n[nH]c2c1"
  READOUT UNIT: "%"
  inhibition at 10 µM: 8
- MOLECULE: "COc1ccc2c(c1)C(=Cc1ccc3c(-c4ccc(N5CCN(C)CC5)nc4)n[nH]c3c1)C(=O)N2 (mixture of isomers)"
  READOUT UNIT: "%"
  inhibition at 10 µM: 93
- MOLECULE: "O=C1Nc2ccccc2/C1=C\\c1ccc2cn[nH]c2c1"
  READOUT UNIT: "%"
  inhibition at 10 µM: 29
- MOLECULE: "O=C1Nc2ccccc2/C1=C\\c1ccc2[nH]nnc2c1"
  READOUT UNIT: "%"
  inhibition at 10 µM: 59

Then there is this molecule:
Problem: Tell me reported inhibition at 10 µM for O=C1Nc2ccccc2C1=Cc1ccc2c(/C=C/c3ccccn3)n[nH]c2c1 (mixture of isomers) , tested with KDR kinase (VEGFR2) (Homo sapiens, UniProt P35968).
Solution: 100

* * *

- SYSTEM TESTED: CHK1 (Homo sapiens, UniProt O14757)
- Construct: CEREP, France (ran the assays)
- Sequence (O14757 whole entry): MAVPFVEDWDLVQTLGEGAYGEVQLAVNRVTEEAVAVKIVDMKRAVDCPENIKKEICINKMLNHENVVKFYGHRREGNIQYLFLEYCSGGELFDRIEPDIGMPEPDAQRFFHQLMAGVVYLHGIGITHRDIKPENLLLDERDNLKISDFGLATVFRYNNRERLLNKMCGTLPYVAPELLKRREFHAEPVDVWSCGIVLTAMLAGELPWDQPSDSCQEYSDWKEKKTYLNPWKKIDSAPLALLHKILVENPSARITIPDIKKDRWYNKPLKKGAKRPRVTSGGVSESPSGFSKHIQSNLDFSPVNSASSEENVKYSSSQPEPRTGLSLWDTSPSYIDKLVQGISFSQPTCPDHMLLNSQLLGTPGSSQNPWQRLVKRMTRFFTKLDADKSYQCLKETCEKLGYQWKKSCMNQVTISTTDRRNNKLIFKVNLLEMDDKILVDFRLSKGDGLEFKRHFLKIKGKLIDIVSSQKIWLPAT
- ASSAY METHOD TEXT: Kinase Selectivity Assay (CEREP, HTRF)
- Format: biochemical
- STUDY CONDITIONS: read-out: % Inhibition at 10 μM Concentration, CHK1
The following compounds are listed with their measured inhibition at 10 µM values.
Numeric answer only, unit % assumed.

Consider the following illustrative entries.
- COMPOUND: "COc1ccc2c(c1)C(=Cc1ccc3c(-c4ccc(N5CCN(C)CC5)nc4)n[nH]c3c1)C(=O)N2 (mixture of isomers)"
  REPORTED RESULT: 3
- COMPOUND: "O=C1Nc2ccccc2C1=Cc1ccc2c(/C=C/c3ccccn3)n[nH]c2c1 (mixture of isomers)"
  REPORTED RESULT: 7
- COMPOUND: "O=C1Nc2ccccc2/C1=C\\c1ccc2cn[nH]c2c1"
  REPORTED RESULT: -2
- COMPOUND: "O=C1Nc2ccccc2/C1=C\\c1ccc2c(/C=C/c3ccccc3Cl)n[nH]c2c1"
  REPORTED RESULT: -1

Then there is this compound:
Problem: Dear colleague, I am looking for the recorded inhibition at 10 µM of the following compound: `O=C1Nc2ccccc2/C1=C\c1ccc2[nH]nnc2c1`
Solution: -6

* * *

The following compounds are listed with their measured GI50 values.
- Test system: HCC1954 basal breast cancer cell line
- ASSAY METHOD TEXT: Cell growth inhibition, Sulforhodamine B assay (SRB)
- Format: cell-based
- STUDY CONDITIONS: Homo sapiens, HCC1954, 120 h, 5 days culture, read-out: Cell Line GI50 Range, HCC-1954

- COMPOUND: "O=C1Nc2ccccc2C1=Cc1ccc2c(/C=C/c3ccccn3)n[nH]c2c1 (mixture of isomers)"
  SYSTEM TESTED: "HCC1954 basal breast cancer cell line"
  GI50: "20 to 50 µM"
- COMPOUND: "O=C1Nc2ccccc2/C1=C\\c1ccc2c(-c3cccs3)n[nH]c2c1"
  SYSTEM TESTED: "HCC1954 basal breast cancer cell line"
  GI50: "< 5 µM"
- COMPOUND: "CN(C)Cc1ccc(/C=C/c2n[nH]c3cc(C=C4C(=O)Nc5ccccc54)ccc23)cc1 (mixture of isomers) [Example A106, 2,2,2-trifluoroacetate]"
  SYSTEM TESTED: "HCC1954 basal breast cancer cell line"
  GI50: "< 5 µM"
- COMPOUND: "CN1CCN(c2ccc(-c3n[nH]c4cc(C=C5C(=O)Nc6ccccc65)ccc34)cn2)CC1 (mixture of isomers)"
  SYSTEM TESTED: "HCC1954 basal breast cancer cell line"
  GI50: "< 5 µM"
- COMPOUND: "COc1ccc2c(c1)C(=Cc1ccc3c(-c4ccc(N5CCN(C)CC5)nc4)n[nH]c3c1)C(=O)N2 (mixture of isomers)"
  SYSTEM TESTED: "HCC1954 basal breast cancer cell line"
  GI50: "< 5 µM"

Problem: Tell me reported GI50 for CC(C)c1ccc2c(c1)/C(=C\c1ccc3c(/C=C/c4ccncc4)n[nH]c3c1)C(=O)N2 [Example A127, 2,2,2-trifluoroacetate] , tested with HCC1954 basal breast cancer cell line.
Solution: < 5 µM

Problem: Tell me reported GI50 for `Cc1ncsc1/C=C/c1n[nH]c2cc(/C=C3/C(=O)Nc4ccccc43)ccc12` , tested with HCC1954 basal breast cancer cell line.
Solution: 5 to 20 µM

Problem: Tell me reported GI50 for CN1CCN(c2ccc(/C=C/c3n[nH]c4cc(C=C5C(=O)Nc6ccccc65)ccc34)cn2)CC1 (mixture of isomers) , tested with HCC1954 basal breast cancer cell line.
Solution: < 5 µM

Problem: Tell me reported GI50 for CN1CCN(c2ccc(-c3n[nH]c4cc(C=C5C(=O)Nc6ccc(Br)cc65)ccc34)cn2)CC1 (mixture of isomers) , tested with HCC1954 basal breast cancer cell line.
Solution: < 5 µM

Problem: Tell me reported GI50 for O=C1Nc2ncc(Br)cc2C1=Cc1ccc2c(/C=C/c3ccncc3)n[nH]c2c1 (mixture of isomers) , tested with HCC1954 basal breast cancer cell line.
Solution: > 50 µM

Problem: Tell me reported GI50 for COc1ccccc1/C=C/c1n[nH]c2cc(C=C3C(=O)Nc4ccccc43)ccc12 (mixture of isomers) , tested with HCC1954 basal breast cancer cell line.
Solution: 5 to 20 µM

Problem: Tell me reported GI50 for `O=C1Nc2ccccc2/C1=C\c1ccc2c(C#Cc3cccnc3)n[nH]c2c1` , tested with HCC1954 basal breast cancer cell line.
Solution: > 50 µM

Problem: Tell me reported GI50 for `O=C1Nc2ccc(Cl)cc2/C1=C\c1ccc2c(/C=C/c3ccncc3)n[nH]c2c1` , tested with HCC1954 basal breast cancer cell line.
Solution: 5 to 20 µM
